Please respond with reported ka for every item in the list.
Experimental Target: T1, eukaryotically produced human IL-6 (Homo sapiens, UniProt P05231)
T1 construct: purchased Humanzyme HZ-1044; host or cells: Human Embryonic kidney cells
T1 sequence (P05231 30-212): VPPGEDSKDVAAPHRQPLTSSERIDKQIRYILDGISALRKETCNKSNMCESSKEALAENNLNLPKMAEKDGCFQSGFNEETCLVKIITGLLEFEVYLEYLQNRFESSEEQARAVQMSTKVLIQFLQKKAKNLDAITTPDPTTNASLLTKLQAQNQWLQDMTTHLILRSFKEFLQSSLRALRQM
Experiment Summary: Surface plasmon resonance (Biacore), eukaryotically produced human IL-6 coated on CM5 chip
Type: binding
Test Context: euk; periplasmic fractions, 28A6 chain-shuffled
One number for each entry, in M⁻¹ s⁻¹.

Molecule	Reading
55E10g1: 28A6 chain-shuffled Fab, periplasmic fraction (antibody, V domains shown) VH: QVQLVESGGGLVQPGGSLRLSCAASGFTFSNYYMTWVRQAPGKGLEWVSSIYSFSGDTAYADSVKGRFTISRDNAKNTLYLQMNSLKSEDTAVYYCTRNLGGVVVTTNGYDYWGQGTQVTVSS VL: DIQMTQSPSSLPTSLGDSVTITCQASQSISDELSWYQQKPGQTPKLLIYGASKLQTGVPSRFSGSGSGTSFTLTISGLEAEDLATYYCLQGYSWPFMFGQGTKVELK	146000
55C11f: 28A6 chain-shuffled Fab, periplasmic fraction (antibody, V domains shown) VH: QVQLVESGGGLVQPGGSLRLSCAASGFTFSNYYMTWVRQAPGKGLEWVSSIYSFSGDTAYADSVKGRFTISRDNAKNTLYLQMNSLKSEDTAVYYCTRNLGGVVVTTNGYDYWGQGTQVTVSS VL: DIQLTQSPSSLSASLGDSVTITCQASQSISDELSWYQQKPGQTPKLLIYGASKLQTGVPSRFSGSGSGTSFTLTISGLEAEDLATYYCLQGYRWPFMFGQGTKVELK	201000

Now, please, on to the next molecule.
Problem: Looking for the measured ka of 48H1g2, R4: 28A6 chain-shuffled Fab, periplasmic fraction (antibody, V domains shown) VH: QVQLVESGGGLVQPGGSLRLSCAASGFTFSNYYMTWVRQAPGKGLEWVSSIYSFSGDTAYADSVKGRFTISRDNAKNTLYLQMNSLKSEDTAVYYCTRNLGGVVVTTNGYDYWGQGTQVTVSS VL: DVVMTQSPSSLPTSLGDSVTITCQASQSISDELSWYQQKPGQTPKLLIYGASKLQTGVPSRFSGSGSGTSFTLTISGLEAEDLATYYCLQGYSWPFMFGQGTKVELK , can you help?
Solution: 106000
